tested on: SW620; test: CCK-8 tumor cell proliferation, SW620; type: cell-based, Human; settings: Homo sapiens, SW-620; Table 18, FAK inhibitor based; SW620; read-out: IC50 inhibiting proliferation of tumor cells, SW620
pIC50: −log10 of the molar value.
A collection of compounds and their measured pIC50

Reference set (3 entries):
Compound	pIC50
CNC(=O)c1ccccc1Nc1cc(Nc2ccc(N3CCN(Cc4cc5c(cc4F)C(=O)N(C4CCC(=O)NC4=O)C5)CC3)cc2OC)ncc1C(F)(F)F (stereo not drawn) [GT-03716]	> 7.30
CNC(=O)c1ccccc1Nc1cc(Nc2ccc(N3CCN(Cc4ccc5c(c4)CN(C4CCC(=O)NC4=O)C5=O)CC3)cc2OC)ncc1C(F)(F)F (stereo not drawn) [GT-03014]	> 7.30
CNC(=O)c1ccccc1Nc1cc(Nc2ccc(N3CCOCC3)cc2OC)ncc1C(F)(F)F [PND-1186, reference compound]	> 7.30

Requested read-out: pIC50. Entry: CNC(=O)c1ccccc1Nc1cc(Nc2ccc(N3CCC(N4CCN(Cc5ccc6c(c5)CN(C5CCC(=O)NC5=O)C6=O)CC4)CC3)cc2OC)ncc1C(F)(F)F (stereo not drawn) [GT-03266]
6.30 to 7.00

Record request: pIC50 value, item CNC(=O)c1ccccc1Nc1cc(Nc2cc(C)c(C3CCN(Cc4ccc5c(c4F)CN(C4CCC(=O)NC4=O)C5=O)CC3)cc2OC(C)C)ncc1C(F)(F)F (stereo not drawn) [GT-04079]
> 7.30

Returns the measured pIC50 for the input compound. Input: CN(Cc1ccc2c(c1)CN(C1CCC(=O)NC1=O)C2=O)C1CCN(c2ccc(Nc3ncc(C(F)(F)F)c(NCc4nccnc4N(C)S(C)(=O)=O)n3)cc2)CC1 (stereo not drawn) [GT-03705]
6.30 to 7.00

---

tested on: SW620; test: CCK-8 tumor cell proliferation, SW620; format: cell-based, Human; settings: Homo sapiens, SW-620; Table 18, FAK inhibitor based; SW620; read-out: IC50 inhibiting proliferation of tumor cells, SW620
Measure: IC50

A selection of reference data follows.
Compound	Target	Result value
CNC(=O)c1ccccc1Nc1cc(Nc2cc(C)c(C3CCN(Cc4ccc5c(c4)CN(C4CCC(=O)NC4=O)C5=O)CC3)cc2OC(C)C)ncc1C(F)(F)F (stereo not drawn)	SW620	100 to 500 nM
CNC(=O)c1ccccc1Nc1cc(Nc2ccc(N3CCN(Cc4ccc5c(c4F)CN(C4CCC(=O)NC4=O)C5=O)CC3)cc2OC)ncc1C(F)(F)F (stereo not drawn)	SW620	< 50 nM
CS(=O)(=O)c1cccc(CNc2nc(Nc3ccc(N4CCN(Cc5ccc6c(c5)CN(C5CCC(=O)NC5=O)C6=O)CC4)cc3)ncc2C(F)(F)F)c1 (stereo not drawn)	SW620	< 50 nM

Lookup: IC50 / SW620 / CNC(=O)c1ccccc1Nc1cc(Nc2ccc(N3CCC(N(C)Cc4ccc5c(c4)CN(C4CCC(=O)NC4=O)C5=O)CC3)cc2OC)ncc1C(F)(F)F (stereo not drawn)
100 to 500 nM

Could you share what IC50 was measured for CN(c1nccnc1CNc1nc(Nc2ccc(N3CCN(Cc4ccc5c(c4)CN(C4CCC(=O)NC4=O)C5=O)CC3)cc2)ncc1C(F)(F)F)S(C)(=O)=O (stereo not drawn) , tested on SW620?
1000 to 5000 nM

What measured IC50 is associated with CNC(=O)c1ccccc1Nc1cc(Nc2cc(C)c(C3CCN(Cc4cc5c(cc4F)C(=O)N(C4CCC(=O)NC4=O)C5)CC3)cc2OC(C)C)ncc1C(F)(F)F (stereo not drawn) on SW620?
< 50 nM
